- test description: SV40 cytopathic effect inhibition and cytotoxicity, confirmation, SV40 T antigen inhibitor project, BSC cells (AID 2615)
- experimental conditions: BSC cells SV40 infection; CPE inhibition, viability, at 100 µM, stronger effect = lower value
Recorded viability values for a group of compounds are listed next.
Give your result in % as a bare value.

Use the examples below as a reference point.
line notation	viability, %
COc1ccc(-n2nnnc2C(Cl)(Cl)c2nnnn2-c2ccc(OC)cc2)cc1	6.3
ClC(Cl)(c1nnnn1-c1ccc(Br)cc1)c1nnnn1-c1ccc(Br)cc1	-0.31
Nc1nc2ccc(S(=O)(=O)N3CCCCC3)cc2s1	0.95
Nc1nc2ccc(C(=O)N3CCCCC3)cc2s1	103
ClC(Cl)(c1nnnn1-c1ccccc1)c1nnnn1-c1ccccc1	0.34

# evaluate next
Which measured viability value corresponds to `CCN(CC)C(=O)c1ccc2nc(N)sc2c1` ?
87.6
